Collected Kd values appear next to each entry.
TGT: T1, human IL-11Rα (form used in the assay not stated) (human, UniProt Q14626 23-363, limits assumed)
T1 construct: also called hIL-11R; hIL-11Rα
T1 sequence: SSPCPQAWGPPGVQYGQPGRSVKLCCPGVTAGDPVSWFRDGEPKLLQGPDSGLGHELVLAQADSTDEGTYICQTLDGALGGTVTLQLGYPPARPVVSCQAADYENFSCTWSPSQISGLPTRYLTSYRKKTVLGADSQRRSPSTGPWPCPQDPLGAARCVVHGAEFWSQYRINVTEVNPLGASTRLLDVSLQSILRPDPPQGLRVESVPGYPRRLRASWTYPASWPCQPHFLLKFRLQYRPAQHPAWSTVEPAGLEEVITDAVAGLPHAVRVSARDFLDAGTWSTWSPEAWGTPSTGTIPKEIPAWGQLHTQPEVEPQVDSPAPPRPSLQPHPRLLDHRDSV
MEASUREMENT DESCRIPTION: Biacore, pH 8.5, 37°C

{"columns": ["BINDER", "Kd"],
 "data": [
  ["hu8E2-TS-22 (antibody, V domains shown) VH: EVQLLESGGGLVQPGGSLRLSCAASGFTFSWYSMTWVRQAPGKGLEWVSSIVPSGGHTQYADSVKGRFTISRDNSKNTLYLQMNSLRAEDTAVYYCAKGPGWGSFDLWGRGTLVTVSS VL: DIQMTQSPSSLSASVGDRVTITCQASQDINNYLNWYQQKPGKAPKLLIYDASNLQTGVPSRFSGSGSGTDFTFTISSLQPEDIATYYCQQFETQSPTFGPGTKVDIK", "0.838 nM"],
  ["hu8E2-TS-6 (antibody, V domains shown) VH: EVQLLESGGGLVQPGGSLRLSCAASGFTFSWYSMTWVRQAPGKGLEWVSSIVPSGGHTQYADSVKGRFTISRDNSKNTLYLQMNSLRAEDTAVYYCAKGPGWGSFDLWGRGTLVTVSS VL: DIQMTQSPSSLSASVGDRVTITCQASQDINNYLNWYQQKPGKAPKLLIYDASNLQTGVPSRFSGSGSGTDFTFTISSLQPEDIATYYCEQFESQSPTFGPGTKVDIK", "0.289 nM"]
]}
